# Tested on: Wild type
# measurement protocol: S. aureus survival, RN4220 and DeltatarO strains – OD600, teichoic acid synthesis inhibitors, primary screen (AID 463173)
# study conditions: S. aureus RN4220 wild type/DeltatarO growth, OD600, 18 h, hits give low values, screened at 18.75 µg/mL (by protocol)
The campaign covered roughly 52,000 compounds. About 1,700 (3.3%) were called active. The sample holds actives, similar compounds and a random draw of the others, so the mix is not that of the screen.
# key: entry, value: survival
Record the value in %, omitting the unit from your answer.

Illustrative cases are given below, each with its answer.
Cc1cc(C)cc(Oc2nc3c(C)cccn3c(=O)c2/C=C(\C#N)c2nc3ccccc3[nH]2)c1 | 69
COc1ccc(CNCCC(c2ccccc2)c2ccc3c(c2)OCO3)cc1 (configuration not stated) | 3

Input line: Given Cc1ccc(-c2ccc(=O)n(CC(=O)NCCc3ccc(Cl)cc3)n2)cc1 , state its recorded survival.
Output line: 73

Input line: Given COc1cccc(C(=O)Nc2cccc(C(=O)OCc3cc(=O)n4c(C)csc4n3)c2)c1 , state its recorded survival.
Output line: 133

Input line: Given Cc1oc2ccc(O)c(CN3CCCC(C)C3)c2c1C(=O)Nc1ccccc1 (configuration not stated) , state its recorded survival.
Output line: 91

Input line: Given CCOCCCNC(=O)C(c1ccccc1)N(Cc1ccc2c(c1)OCO2)C(=O)c1ccc(NC(C)=O)cc1 (configuration not stated) , state its recorded survival.
Output line: 70

Input line: Given CCc1ccccc1NC(=O)CN(c1cccc(C)c1C)S(C)(=O)=O , state its recorded survival.
Output line: 72

###

# Test system: Wild type
# measurement protocol: S. aureus survival, RN4220 and DeltatarO strains – OD600, teichoic acid synthesis inhibitors, primary screen (AID 463173)
# study conditions: S. aureus RN4220 wild type/DeltatarO growth, OD600, 18 h, hits give low values, screened at 18.75 µg/mL (by protocol)
Among all 52,000 compounds or so, about 1,700 (3.3%) were called active. This excerpt belongs to a sample that is enriched for actives.
// assign t if survival falls strictly below 70%, else f (ties count as f)

CCNc1nc(NC(N)=S)nc(NC(C)(C)C)n1 | f
Cc1cccc(-c2nc3c4ccccc4n(Cc4cccc(Cl)c4)c(=O)n3n2)c1 | f
CC(C)(C)c1ccc(C(=O)Nc2cc(-c3nc4ccccc4o3)ccc2Cl)cc1 | t
O=C(NC1CC(=O)N(c2ccccc2)C1)c1ccc(S(=O)(=O)N2CCCCC2)cc1 (configuration not stated) | t
CCC(C(=O)NCCc1ccc(OC)c(OC)c1)n1nc(C)c2sc3ccccc3c2c1=O (configuration not stated) | f
O=C(CSc1nc2ccccc2n1Cc1ccccc1F)NCc1ccccc1 | f
COc1cc(O)ccc1-c1nc2cc(C)ccn2c1Nc1ccccc1C | f
CCOC(=O)c1sc(NC(=O)c2cc3nc(-c4ccccc4)cc(C(F)(F)F)n3n2)c(C(=O)OCC)c1C | t

Now take the following molecule into account.
Input line: State whether 70% exceeds survival recorded for Oc1ccccc1-c1nc2cnccn2c1Nc1ccc(Cl)cc1 .
Output line: t

###

# key: entry, value: survival
# System: Wild type
# measurement protocol: S. aureus survival, RN4220 and DeltatarO strains – OD600, teichoic acid synthesis inhibitors, primary screen (AID 463173)
# study conditions: S. aureus RN4220 wild type/DeltatarO growth, OD600, 18 h, hits give low values, screened at 18.75 µg/mL (by protocol)
Out of some 52,000 compounds screened, about 1,700 (3.3%) were called active. The full list was thinned out, with actives kept by preference.
Record the value in %, omitting the unit from your answer.

Illustrative cases are given below, each with its answer.
CC(C)(C)NC(=O)CSc1nc(-c2ccc(F)cc2)cc(C(F)(F)F)n1 | 78
CCC(=O)Oc1c(Sc2ccc(Cl)cc2)c(C)nn1C(C)(C)C | 60
COc1cccc(-c2cc(C(F)(F)F)nc(-n3nc(C)c(Br)c3C)n2)c1 | 80

Continue with the next compound.
Input line: Given CN(Cc1ccccc1)c1nc(-c2ccc(F)cc2)cc(C(F)(F)F)n1 , state its recorded survival.
Output line: 80

###

# Test system: Wild type
# measurement protocol: S. aureus survival, RN4220 and DeltatarO strains – OD600, teichoic acid synthesis inhibitors, primary screen (AID 463173)
# study conditions: S. aureus RN4220 wild type/DeltatarO growth, OD600, 18 h, hits give low values, screened at 18.75 µg/mL (by protocol)
In all, about 52,000 compounds went through this assay and about 1,700 (3.3%) were called active. Shown is part of a subset that was picked to be rich in actives.
recorded endpoint: survival (%)
Record the value in %, omitting the unit from your answer.

Illustrative cases are given below, each with its answer.
CCn1ccc2c(OCC(=O)NCc3ccccc3)cccc2c1=O | 66
Cc1ccc(NC(=O)CCC(=O)N2Cc3ccccc3Oc3ncccc32)cc1F | 82
Cc1cccc(Cn2c(-c3ccccc3)nc3ccccc32)c1 | 26
CCOC(=O)c1c(NC(=O)c2ccccc2OCC)sc2c1CCC(CC)C2 (stereo not drawn) | -1
O=C(CN1C(=O)C(c2ccc(F)cc2)=NC12CCCCCC2)Nc1ccc(F)c(Cl)c1 | 76

Input line: Given CC(C)c1ccc(Nc2c(-c3ccccn3)nc3ccccn23)cc1 , state its recorded survival.
Output line: -21

Input line: Given CCN(CC)C(C)C(=O)Nc1c(C)cccc1C (stereo not drawn) , state its recorded survival.
Output line: 109

Input line: Given COc1ccccc1CNc1nc(-c2ccco2)nn1C(=O)c1cc(OC)c(OC)c(OC)c1 , state its recorded survival.
Output line: 69

Input line: Given Cc1ccc(N2CC(NC(=O)c3ccc(S(=O)(=O)N4CCOCC4)cc3)CC2=O)cc1 (stereo not drawn) , state its recorded survival.
Output line: 47

Input line: Given Cc1ccn2c(Nc3ccccc3C)c(-c3ccc(N4CCOCC4)cc3)nc2c1 , state its recorded survival.
Output line: 113

###

# System: Wild type
# measurement protocol: S. aureus survival, RN4220 and DeltatarO strains – OD600, teichoic acid synthesis inhibitors, primary screen (AID 463173)
# study conditions: S. aureus RN4220 wild type/DeltatarO growth, OD600, 18 h, hits give low values, screened at 18.75 µg/mL (by protocol)
About 1,700 (3.3%) of roughly 52,000 compounds were called active. The list comes from a sample in which actives are over-represented; it also holds close analogues and randomly drawn compounds.
recorded endpoint: survival (%)
Record the value in %, omitting the unit from your answer.

COc1ccc(-c2nc3ccccc3o2)cc1NC(=O)c1cc(Br)ccc1OC | 66
CCOC(=O)c1c(NC(=O)COc2cccc(C)c2C)sc2c1CCC(CC)C2 (stereo not drawn) | 78

Continue with the next compound.
Input line: Quick check: survival on Wild type, item CC(C)c1ccc(Nc2c(-c3ccco3)nc3ccccn23)cc1 ?
Output line: 33

Data provenance is PubChem BioAssay AID463173.
